// data source = patent US20250304677A1

molecular target: T1, mouse folate receptor alpha (mFRα), recombinant protein (mouse, UniProt P35846 25-232); experiment: BLI
T1 construct: Bought recombinant proteins (e.g. biotinylated, Acro Biosystems FO1-M82E9); also called mFOLR1; Ms FOLR1
T1 sequence (P35846 25-232 limits assumed): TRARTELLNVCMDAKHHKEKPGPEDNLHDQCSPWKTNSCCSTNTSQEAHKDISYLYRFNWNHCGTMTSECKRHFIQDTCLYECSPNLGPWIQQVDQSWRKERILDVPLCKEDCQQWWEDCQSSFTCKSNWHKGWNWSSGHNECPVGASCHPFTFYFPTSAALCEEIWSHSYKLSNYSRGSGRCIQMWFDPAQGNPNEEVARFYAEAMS
attributeMeasured: nm (Fold wt)

1. P01500090: P0150001 with A24V, S27L, M32P, N67E (VHH) VHH: EVQLVESGGGLVQPGGSLRLSCAVSGLGFSGPIMGWYRQAPGKQRELVATVTSHGTTNYADSVKGRFTISRDNAKETVYLQMNSLRPEDTAVYYCNAHFPGIYWGKGTLVTVSS
2.1
2. P01500085: P0150001 with A24V, S27L, M32P (VHH) VHH: EVQLVESGGGLVQPGGSLRLSCAVSGLGFSGPIMGWYRQAPGKQRELVATVTSHGTTNYADSVKGRFTISRDNAKNTVYLQMNSLRPEDTAVYYCNAHFPGIYWGKGTLVTVSS
1.1
3. P01500082: P0150001 with A24V, S27L, M32I (VHH) VHH: EVQLVESGGGLVQPGGSLRLSCAVSGLGFSGIIMGWYRQAPGKQRELVATVTSHGTTNYADSVKGRFTISRDNAKNTVYLQMNSLRPEDTAVYYCNAHFPGIYWGKGTLVTVSS
38
4. P01500089: P0150001 with S27T, M32I, N76D (VHH) VHH: EVQLVESGGGLVQPGGSLRLSCAASGTGFSGIIMGWYRQAPGKQRELVATVTSHGTTNYADSVKGRFTISRDNAKDTVYLQMNSLRPEDTAVYYCNAHFPGIYWGKGTLVTVSS
3.8
